Where these numbers come from: paper PMC11676883

assay: MTT cytotoxicity assay on A549 cells; settings: human
Could you please report measured CC50 for the items listed next?
Respond numerically; units are mM and should not be typed.

GET /value?item= O=c1ccc2ccccc2o1 [Coumarin, 1,2 Benzopyrone] &field=CC50 returns 3.56

GET /value?item= O=c1ccc2cc(O[C@@H]3O[C@H](CO)[C@@H](O)[C@H](O)[C@H]3O)c(O)cc2o1 [Esculin, 6,7-Dihydroxycoumarin-6-glucoside] &field=CC50 returns 1.93

GET /value?item= COc1ccc(C2CC(=O)c3c(O)cc(O)cc3O2)cc1O (centres unmarked) [Hesperetin, 3′,5,7-Trihydroxy-4′-methoxyflavanone] &field=CC50 returns 2.67

GET /value?item= O=c1ccc2ccc(O)cc2o1 [Umbelliferone, 7-Hydroxycoumarin] &field=CC50 returns 2.4

GET /value?item= O=c1ccc2cc(O)c(O)cc2o1 [Esculetin, 6,7-Dihydroxycoumarin] &field=CC50 returns 1.41
